# System: 324938-238-R-J1-PDC complex spheroid viability;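 also: spheroids also contain HUVEC and human MSCs and agents combined with iadademstat; spheroids exposed to agents for 7 days before readout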
# assay text: Anticancer human tumor 324938-238-R-J1-PDC patient-derived bladder carcinoma cell line growth inhibition; active = viability on the fitted dose curve at most 10% of control; inactive = the rest
# test context: second compound 1 µM; first compound 0.3 µM
Outcome codes: active, inactive

molecule	class name
Nc1ccn(C2OC(CO)C(O)C2(F)F)c(=O)n1 (centres undefined) + NC1CCC(NC2CC2c2ccccc2)CC1	active
O=C(C=Cc1cccc(S(=O)(=O)Nc2ccccc2)c1)NO + NC1CC1c1ccc(-c2cccc(O)c2)cc1	inactive
Nc1ncn(C2CC(O)C(CO)S2)c(=O)n1 (centres undefined) + NC1CC1c1ccc(-c2cccc(O)c2)cc1	inactive
Nc1ncn(C2CC(O)C(CO)S2)c(=O)n1 (centres undefined) + NC1CCC(NC2CC2c2ccccc2)CC1	inactive
NS(=O)(=O)OCC1CC(n2ccc3c(NC4CCc5ccccc54)ncnc32)CC1O (centres undefined) + NC1CCC(NC2CC2c2ccccc2)CC1	inactive
NS(=O)(=O)OCC1CC(n2ccc3c(NC4CCc5ccccc54)ncnc32)CC1O (centres undefined) + NC1CC1c1ccc(-c2cccc(O)c2)cc1	inactive
CCN(c1cc(-c2ccc(CN3CCOCC3)cc2)cc(C(=O)NCc2c(C)cc(C)[nH]c2=O)c1C)C1CCOCC1 + NC1CC1c1ccc(-c2cccc(O)c2)cc1	inactive
CCc1c2c(nc3ccc(O)cc13)-c1cc3c(c(=O)n1C2)COC(=O)[C@]3(O)CC + NC1CCC(NC2CC2c2ccccc2)CC1	active
CCN(c1cc(-c2ccc(CN3CCOCC3)cc2)cc(C(=O)NCc2c(C)cc(C)[nH]c2=O)c1C)C1CCOCC1 + NC1CCC(NC2CC2c2ccccc2)CC1	inactive

Where these numbers come from: PubChem BioAssay AID1918935
